This listing pairs compounds with measured Purity %.
# test description: Stability experiment (75% RH, 92.5% RH, 40° C., 60° C. and light for 10 days; XRPD pattern and purity)
# Format: physicochemical
# condition details: 60° C., 10 days
Lab note: write values as number then unit, every time.

compound="C[C@@H]1Cc2c([nH]c3ccccc23)[C@@H](c2c(F)cc(/C=C/C(=O)O)cc2F)N1CC1(F)CC1 [crystal form B]" result=99.75%

Reported Purity % for C[C@@H]1Cc2c([nH]c3ccccc23)[C@@H](c2c(F)cc(/C=C/C(=O)O)cc2F)N1CC1(F)CC1 [crystal form A] : what is it? 99.22%

Next compound up: C[C@@H]1Cc2c([nH]c3ccccc23)[C@@H](c2c(F)cc(/C=C/C(=O)O)cc2F)N1CC1(F)CC1 [crystal form C] 99.84%

Next compound up: C[C@@H]1Cc2c([nH]c3ccccc23)[C@@H](c2c(F)cc(/C=C/C(=O)O)cc2F)N1CC1(F)CC1 [amorphous form] 95.67%
